EXPERIMENT: AUC (0 to 10 hrs) in Sprague-Dawley rat at 5 mg/kg, iv by LC-MS/MS method
Format: ADME, organism-based
Parameters: time < 10 hr, dose 5 mg/kg, route intravenous
TEST_CONDITIONS: plasma
TEST_READOUT: AUC(0-t) at 10 h (ng·h/mL)
Form entry: value (ng·h/mL) — number only.

Q: Recorded AUC(0-t) at 10 h of CCCOc1ccc(S(=O)(=O)N2CCN(C)CC2)cc1-c1nc(CC)c(CC)c(=O)[nH]1 , please.
A: 4470

---

EXPERIMENT: AUC (0 to 10 hrs) in Sprague-Dawley rat at 10 mg/kg, po by LC-MS/MS method
Assay type: ADME, organism-based
Set-up: time < 10 hr, dose 10 mg/kg, route oral
TEST_CONDITIONS: plasma
TEST_READOUT: AUC(0-t) at 10 h

Q: Recorded AUC(0-t) at 10 h of CCCOc1ccc(S(=O)(=O)N2CCN(C)CC2)cc1-c1nc(CC)c(CC)c(=O)[nH]1 , please.
A: 895 ng·h/mL

---

EXPERIMENT: Oral bioavailability in Sprague-Dawley rat at 10 mg/kg by LC-MS/MS method
Format: ADME, organism-based
TEST_CONDITIONS: in vivo
Would you kindly list bioavailability for each of these compounds?

Q: Recorded bioavailability of CCCOc1ccc(S(=O)(=O)N2CCN(C)CC2)cc1-c1nc(CC)c(CC)c(=O)[nH]1 , please.
A: 10%

Q: Same again, this time with CCCc1nn(C)c2c(=O)[nH]c(-c3cc(S(=O)(=O)N4CCN(C)CC4)ccc3OCC)nc12
A: 23%

---

EXPERIMENT: Cmax in Sprague-Dawley rat at 10 mg/kg, po by LC-MS/MS method
Format: ADME, organism-based
Set-up: dose 10 mg/kg, route oral
TEST_CONDITIONS: in vivo
TEST_READOUT: Cmax (ng/mL)
Form entry: value (ng/mL) — number only.

Q: Recorded Cmax of CCCOc1ccc(S(=O)(=O)N2CCN(C)CC2)cc1-c1nc(CC)c(CC)c(=O)[nH]1 , please.
A: 468

---

EXPERIMENT: Tmax in Sprague-Dawley rat at 10 mg/kg, po by LC-MS/MS method
Format: ADME, organism-based
Set-up: dose 10 mg/kg, route oral
TEST_CONDITIONS: in vivo
TEST_READOUT: Tmax
Could you give the number and then its unit, please?

Q: Recorded Tmax of CCCOc1ccc(S(=O)(=O)N2CCN(C)CC2)cc1-c1nc(CC)c(CC)c(=O)[nH]1 , please.
A: 15 min

---

EXPERIMENT: MRT (0 to 10 hrs) in Sprague-Dawley rat at 5 mg/kg, iv by LC-MS/MS method
Format: ADME, organism-based
Design: dose 5 mg/kg, route intravenous
TEST_CONDITIONS: in vivo
TEST_READOUT: MRT last
Could you give the number and then its unit, please?

Q: Recorded MRT last of CCCOc1ccc(S(=O)(=O)N2CCN(C)CC2)cc1-c1nc(CC)c(CC)c(=O)[nH]1 , please.
A: 48.6 min

---

EXPERIMENTAL_SYSTEM: High affinity 3',5'-cyclic-AMP phosphodiesterase 7A (Homo sapiens)
Sequence (Q13946 whole entry): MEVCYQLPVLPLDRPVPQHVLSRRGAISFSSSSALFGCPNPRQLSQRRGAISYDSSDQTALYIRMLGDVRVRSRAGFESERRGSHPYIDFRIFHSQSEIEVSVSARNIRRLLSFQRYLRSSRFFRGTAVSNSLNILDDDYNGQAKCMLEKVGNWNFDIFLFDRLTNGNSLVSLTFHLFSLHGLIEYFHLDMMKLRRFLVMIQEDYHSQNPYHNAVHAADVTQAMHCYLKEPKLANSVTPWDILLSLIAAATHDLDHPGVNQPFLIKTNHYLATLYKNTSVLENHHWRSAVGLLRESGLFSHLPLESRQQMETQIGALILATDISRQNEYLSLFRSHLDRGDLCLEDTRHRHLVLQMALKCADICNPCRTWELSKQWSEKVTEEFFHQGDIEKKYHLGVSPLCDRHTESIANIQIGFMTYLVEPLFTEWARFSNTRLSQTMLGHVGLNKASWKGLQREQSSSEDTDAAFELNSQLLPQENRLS
TEST_READOUT: IC50 (µM)
Form entry: value (µM) — number only.

Q: Recorded IC50 of CCCc1nn(C)c2c(=O)[nH]c(-c3cc(S(=O)(=O)N4CCN(C)CC4)ccc3OCC)nc12 , please.
A: 4.69

---

EXPERIMENT: Half life in Sprague-Dawley rat at 5 mg/kg, iv by LC-MS/MS method
Assay type: ADME, organism-based
Set-up: dose 5 mg/kg, route intravenous
TEST_CONDITIONS: in vivo
TEST_READOUT: half-life (h)
Form entry: value (h) — number only.

Q: Recorded half-life of CCCOc1ccc(S(=O)(=O)N2CCN(C)CC2)cc1-c1nc(CC)c(CC)c(=O)[nH]1 , please.
A: 1.29

---

EXPERIMENT: Volume of distribution in Sprague-Dawley rat at 5 mg/kg, iv by LC-MS/MS method
Format: ADME, organism-based
Parameters: dose 5 mg/kg, route intravenous
TEST_CONDITIONS: in vivo
TEST_READOUT: Vd

Q: Recorded Vd of CCCOc1ccc(S(=O)(=O)N2CCN(C)CC2)cc1-c1nc(CC)c(CC)c(=O)[nH]1 , please.
A: 2.07 L/kg
